Origin of values: patent US20230391785A1

Below, each entry is listed alongside its reported IC50.
Test system: AGS gastric cancer cell line (KRAS G12D mutation)
Assay: Proliferation inhibition measured by CTG (CellTiter Glo), AGS
Format: cell-based
Details: Table 3; CTG, 120 hours incubation; class symbol; read-out: IC50 (AGS)

Known results for compounds:
compound="CC[C@@H]1Cn2cncc2CN1c1nc(OC[C@@H]2CCCN2C)nc2c1CCN(c1cccc3cccc(Cl)c13)C2 [Compound 107]" endpoint_label=IC50 result_value="≤ 100 nM"
compound="C[C@@H]1Cn2cncc2CN1c1nc(OC[C@H]2CCCN2C)nc2c1CCN(c1cccc3cccc(Cl)c13)C2 [Compound 58]" endpoint_label=IC50 result_value="≤ 100 nM"
compound="[2H]C([2H])([2H])N1CCC[C@H]1COc1nc2c(c(N3Cc4cncn4C[C@H]3C)n1)CCN(c1cccc3cccc(Cl)c13)C2 [Compound 77]" endpoint_label=IC50 result_value="≤ 100 nM"
compound="CN1CCC[C@H]1COc1nc2c(c(N3CCn4cncc4C3)n1)CCN(c1cc(O)cc3ccccc13)C2 [Compound 43]" endpoint_label=IC50 result_value="100 to 1000 nM"
compound="C[C@@H]1Cn2cncc2CN1c1nc(OC[C@@H]2CCCN2C)nc2c1CCN(c1cccc3c1CCCC3)C2 [Compound 84]" endpoint_label=IC50 result_value="100 to 1000 nM"
compound="C#Cc1c(F)ccc2cc(O)cc(N3CCc4c(nc(OC[C@@H]5CCCN5C)nc4N4Cc5c(F)ncn5C[C@H]4C)C3)c12 [Compound 108]" endpoint_label=IC50 result_value="≤ 100 nM"

Now for the compound whose IC50 we want.
// query Quick one: IC50 of C[C@@H]1Cn2cnc(Cl)c2CN1c1nc(OCC2CCCN2C)nc2c1CCN(c1cccc3cccc(Cl)c13)C2 (stereo partly shown) [Compound 86] ?
// result ≤ 100 nM
